# experimental target: Pantothenate synthetase (Mycobacterium tuberculosis (strain ATCC 25618 / H37Rv))
# experiment notes: Coupled enzyme confirmation of inhibitors against recombinant Mtb PanC (AID 375);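 also: 0% = full reaction with vehicle and 100% = no enzyme background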
# condition parameters: coupled enzyme assay; at 10 µM, hits give high values
Quick reference for inhibition among some compounds
A number alone suffices; assume %.

[
  {
    "compound": "COc1ccccc1N1CCN(C(=O)c2cc(C3CC3)on2)CC1",
    "experimental target": "Pantothenate synthetase (Mycobacterium tuberculosis (strain ATCC 25618 / H37Rv))",
    "inhibition (%)": 3
  }
]

Query block: // lookup inhibition for "COc1ccc(N2CCN(c3ccc(NC(=O)C4CCCCC4)cc3C#N)CC2)cc1"
Result block: 0

Query block: // lookup inhibition for "Cc1cc(C)c(C(=O)CN2CCOCC2)c(C)c1"
Result block: 2

Query block: // lookup inhibition for "CC(=O)c1ccc(NC(=O)CSc2nnc(-c3ccoc3C)n2Cc2ccccc2)cc1"
Result block: 0

Query block: // lookup inhibition for O=C1c2ccccc2C(Nc2ccc3c(c2)OCO3)N1Cc1ccc2c(c1)OCO2 (stereo not given)
Result block: 0
